- EXPERIMENTAL DETAILS: Solubility in water of mediators
- Assay type: physicochemical
- EXPERIMENTAL CONDITIONS: water; read-out: Solubility in water
PROPERTY MEASURED: solubility (mM)
Lab book: enter the figure in mM, no units written.

Ask | I am curious: what solubility value has been reported for `O=C([O-])c1ccc(-c2ccc3c(c2)C(=O)C(=O)c2ccccc2-3)cc1.[Na+]` ?
Reply | 5

Ask | I am curious: what solubility value has been reported for `Nc1ccc2c(c1)C(=O)C(=O)c1ccccc1-2` ?
Reply | 1

Ask | I am curious: what solubility value has been reported for `O=C1C(=O)c2cc(-c3ccc(S(=O)(=O)[O-])cc3)ccc2-c2ccccc21.[Na+]` ?
Reply | 20

###

Collected Eox (V) values appear next to each entry.
- EXPERIMENTAL DETAILS: Cyclic voltammetry of mediators, redox potential vs Ag|AgCl
- Type: physicochemical
- EXPERIMENTAL CONDITIONS: potential at peak oxidation current; reference Ag|AgCl
- Protocol: Redox potential (EO′) was calculated in the following procedure. Specifically, cyclic voltammetry using Ag|AgCl as the reference electrode was performed under the same conditions as those in Examples to be described later. Redox potential (EO′) was found as an average of the potential value at the peak oxidation current (Eox) and the potential value at the peak reduction current (Ered), i.e., [(Ered+Eox)/2]. […]

Recorded Eox (V), per entry:
• O=C(NCCS(=O)(=O)[O-])c1ccc(-c2ccc3c(c2)C(=O)C(=O)c2ccccc2-3)cc1.[Na+] = −0.14 V
• O=C([O-])c1ccc(-c2ccc3c(c2)C(=O)C(=O)c2ccccc2-3)cc1.[Na+] = −0.14 V
• O=C1C(=O)c2cc(S(=O)(=O)[O-])ccc2-c2ccc(S(=O)(=O)[O-])cc21.[Na+].[Na+] = −0.06 V

Ask | I am curious: what Eox (V) value has been reported for `O=C1C(=O)c2cc(-c3ccc(S(=O)(=O)[O-])cc3)ccc2-c2ccccc21.[Na+]` ?
Reply | −0.14 V

Ask | I am curious: what Eox (V) value has been reported for `O=C1C(=O)c2cc([N+](=O)[O-])ccc2-c2ccccc21` ?
Reply | −0.10 V

Ask | I am curious: what Eox (V) value has been reported for `O=C1C(=O)c2cc(S(=O)(=O)[O-])ccc2-c2ccccc21.[Na+]` ?
Reply | −0.12 V

Ask | I am curious: what Eox (V) value has been reported for `O=C([O-])c1cc(C(=O)[O-])cc(-c2ccc3c(c2)C(=O)C(=O)c2ccccc2-3)c1.[Na+].[Na+]` ?
Reply | −0.15 V

Ask | I am curious: what Eox (V) value has been reported for `Nc1ccc2c(c1)C(=O)C(=O)c1ccccc1-2` ?
Reply | −0.19 V

###

- EXPERIMENTAL DETAILS: Solubility in water of mediators
- Type: physicochemical
- EXPERIMENTAL CONDITIONS: water; read-out: Solubility in water
- Source text: Solubilities in water of Compounds A, B, H′, I, I′ and J and disodium 9,10-phenanthrenequinone 2,7-disulfonate are given in Table 1.
Collected solubility values appear next to each entry.
Lab book: enter the figure in mM, no units written.

- O=C(NCCS(=O)(=O)[O-])c1ccc(-c2ccc3c(c2)C(=O)C(=O)c2ccccc2-3)cc1.[Na+]: 20

Ask | I am curious: what solubility value has been reported for `O=C([O-])c1cc(C(=O)[O-])cc(-c2ccc3c(c2)C(=O)C(=O)c2ccccc2-3)c1.[Na+].[Na+]` ?
Reply | 50

Ask | I am curious: what solubility value has been reported for `O=C1C(=O)c2cc([N+](=O)[O-])ccc2-c2ccccc21` ?
Reply | 1

Measured values drawn from patent US10761045B2 for this set.
